Just for reference, the supplement of paper PMC10598134 is where these values come from.

Overview of reported collision cross section across a group of sequences:
# Test details: collision cross section of modified peptide (TIMS, N2, iRT-aligned); higher = larger / more extended gas-phase ion
# Experimental setup: charge state: 2; modification: Dimethyl (K)
Parameter measured: collision cross section (Å²)

1) LLEQKTQESQK [_LLEQK(Dimethyl (K))TQESQK_]: 409.09
2) GEVGAGAGPGAQAGPSAKR [_GEVGAGAGPGAQAGPSAK(Dimethyl (K))R_]: 422.35
3) VFSIISSEKELK [_VFSIISSEK(Dimethyl (K))ELK_]: 416.15
4) SSFAYKDQNENR [_SSFAYK(Dimethyl (K))DQNENR_]: 406.82
5) ASNAAVKLAESK [_ASNAAVK(Dimethyl (K))LAESK_]: 387.86
6) PSVSTKLISK [_PSVSTK(Dimethyl (K))LISK_]: 362.9
7) SDDESSQKDIK [_SDDESSQK(Dimethyl (K))DIK_]: 372.77
8) DDSFLGKLGGTLAR [_DDSFLGK(Dimethyl (K))LGGTLAR_]: 416.68
9) VNVEAPDVNLEGLGGKLK [_VNVEAPDVNLEGLGGK(Dimethyl (K))LK_]: 464.65
10) DESFLGKLGGTLAR [_DESFLGK(Dimethyl (K))LGGTLAR_]: 418.8

----------
# Test details: collision cross section of modified peptide (TIMS, N2, iRT-aligned); higher = larger / more extended gas-phase ion
# Experimental setup: charge state: 2; modification: Acetyl (K)
Overview of reported collision cross section across a group of sequences:
Parameter measured: collision cross section (Å²)

1. KYEEIDNAPEER [_K(Acetyl (K))YEEIDNAPEER_]: 408.98
2. IVFSGNLFQHQEDSKK [_IVFSGNLFQHQEDSK(Acetyl (K))K_]: 495.37
3. GFALVGVGSEASSKK [_GFALVGVGSEASSK(Acetyl (K))K_]: 429.07
4. IQQELQTAKK [_IQQELQTAK(Acetyl (K))K_]: 374.24
5. PASGAGAGAGAGKR [_PASGAGAGAGAGK(Acetyl (K))R_]: 357.24
6. IVSGKDYNVTANSK [_IVSGK(Acetyl (K))DYNVTANSK_]: 408.96

----------
# Test details: collision cross section of modified peptide (TIMS, N2, iRT-aligned); higher = larger / more extended gas-phase ion
# Experimental setup: charge state: 2; modification: Biotin
Parameter measured: collision cross section (Å²)

1. KYEEIDNAPEER [_K(Biotin)YEEIDNAPEER_]: 430.04
2. SEASSEFAKK [_SEASSEFAK(Biotin)K_]: 374.33
3. SLKLNTAEDAK [_SLK(Biotin)LNTAEDAK_]: 397.96
4. STGLELETPSLVPVKK [_STGLELETPSLVPVK(Biotin)K_]: 465.71
5. ITGKNQVTATK [_ITGK(Biotin)NQVTATK_]: 389.13
6. IISSIEQKEENK [_IISSIEQK(Biotin)EENK_]: 422.44
7. DLGKFQVATDALK [_DLGK(Biotin)FQVATDALK_]: 425.47
8. GTISAPGKVVTAAAQAK [_GTISAPGK(Biotin)VVTAAAQAK_]: 458.66
9. SPDEAYAIAKK [_SPDEAYAIAK(Biotin)K_]: 394.29
10. LQLEIDQKK [_LQLEIDQK(Biotin)K_]: 382.89
11. ANLEKAQAELVGTADEATR [_ANLEK(Biotin)AQAELVGTADEATR_]: 492.92
